biological target: IDO1 (Homo sapiens); assay: IDO1 Enzymatic Assay (A); assay type: biochemical; settings: recombinant HIS-tagged IDO1, 40 nM; read-out: IDO enzymatic IC50, nM (A)
Sequence (P14902 whole entry): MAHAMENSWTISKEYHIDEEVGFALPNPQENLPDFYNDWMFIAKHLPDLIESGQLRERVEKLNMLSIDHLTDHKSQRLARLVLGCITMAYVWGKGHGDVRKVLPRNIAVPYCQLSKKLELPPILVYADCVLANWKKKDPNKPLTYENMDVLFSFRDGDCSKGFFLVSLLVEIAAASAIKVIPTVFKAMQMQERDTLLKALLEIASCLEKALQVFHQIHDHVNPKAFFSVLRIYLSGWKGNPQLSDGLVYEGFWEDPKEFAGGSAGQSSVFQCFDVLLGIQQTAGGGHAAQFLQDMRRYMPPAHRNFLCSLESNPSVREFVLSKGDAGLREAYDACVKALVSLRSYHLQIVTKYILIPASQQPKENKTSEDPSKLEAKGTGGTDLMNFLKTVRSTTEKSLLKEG
Record form. Attribute: IC50. Fill in for each entry.
Form field: result (number plus unit)

molecule="C[C@@H]1CN(c2cc(Br)cc3[nH]ncc23)CC[C@]12NC(=O)NC2=O (single isomer, unassigned) [Compound 1-1]" parameter=IC50 measured="129 nM"

Could you now look at the following molecule, please?
Request: Could you share what IC50 was measured for O=C1NC(=O)C2(CCN(c3cc(Cl)cc4[nH]ncc34)CC2)N1 [CC-1] , tested on IDO1 (Homo sapiens)?
Response: 113 nM
